biological target: CDK4 CCND3 (human) (UniProt P30281+P11802); experiment: radiometric filter-binding kinase assay, Kinase HotSpot; settings: compound 0.5 µM; ATP 10 µM
Sequence (P11802 whole entry, looked up): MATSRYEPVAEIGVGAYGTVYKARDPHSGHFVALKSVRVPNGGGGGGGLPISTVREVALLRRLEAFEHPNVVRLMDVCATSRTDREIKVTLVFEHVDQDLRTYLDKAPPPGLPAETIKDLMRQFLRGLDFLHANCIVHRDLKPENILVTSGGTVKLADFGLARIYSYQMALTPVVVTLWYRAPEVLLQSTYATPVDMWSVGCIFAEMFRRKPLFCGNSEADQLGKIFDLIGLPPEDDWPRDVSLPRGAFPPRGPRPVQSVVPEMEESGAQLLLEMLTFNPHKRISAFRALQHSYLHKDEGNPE
Sequence (P30281 whole entry, looked up): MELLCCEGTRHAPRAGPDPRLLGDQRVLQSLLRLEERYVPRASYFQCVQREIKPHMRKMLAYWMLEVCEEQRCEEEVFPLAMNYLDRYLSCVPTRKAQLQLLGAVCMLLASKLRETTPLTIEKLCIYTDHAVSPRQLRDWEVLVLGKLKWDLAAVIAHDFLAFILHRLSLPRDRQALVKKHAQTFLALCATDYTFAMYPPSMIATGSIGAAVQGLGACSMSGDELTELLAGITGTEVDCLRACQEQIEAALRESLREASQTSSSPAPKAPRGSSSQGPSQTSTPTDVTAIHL
MEASUREMENT KIND: residual activity (%)

{"MOLECULE SMILES": "Cc1cccc(-c2nc(C(C)(C)C)[nH]c2-c2ccc3c(c2)OCO3)n1", "QUANTITY UNIT": "%", "EXPERIMENTAL RESULT": 102}
{"MOLECULE SMILES": "COc1ccc(S(=O)(=O)N(CCO)c2ccccc2CN(C)C/C=C/c2ccc(Cl)cc2)cc1", "QUANTITY UNIT": "%", "EXPERIMENTAL RESULT": 94.1}
{"MOLECULE SMILES": "Cc1nc(-c2ccccc2)c(-c2ccncc2)o1", "QUANTITY UNIT": "%", "EXPERIMENTAL RESULT": 107}
{"MOLECULE SMILES": "O=C(c1cc2cc(O)ccc2[nH]1)c1cc2cc(O)ccc2[nH]1", "QUANTITY UNIT": "%", "EXPERIMENTAL RESULT": 105}
{"MOLECULE SMILES": "CS(=O)(=O)CCNCc1ccc(-c2ccc3ncnc(Nc4ccc(OCc5cccc(F)c5)c(Cl)c4)c3c2)o1", "QUANTITY UNIT": "%", "EXPERIMENTAL RESULT": 104}
{"MOLECULE SMILES": "NC(=O)c1cccc(-c2cc(Nc3ccc(OC(F)(F)F)cc3)ncn2)c1", "QUANTITY UNIT": "%", "EXPERIMENTAL RESULT": 98.4}
{"MOLECULE SMILES": "c1ccc2c(-c3ccncc3)c[nH]c2c1", "QUANTITY UNIT": "%", "EXPERIMENTAL RESULT": 102}
{"MOLECULE SMILES": "COc1ccc2c(c1)/C(=C/c1cnc[nH]1)C(O)=N2", "QUANTITY UNIT": "%", "EXPERIMENTAL RESULT": 49.6}
{"MOLECULE SMILES": "CN(C)c1ccc(/C=C2\\C(=O)Nc3ccccc32)cc1", "QUANTITY UNIT": "%", "EXPERIMENTAL RESULT": 98.9}
{"MOLECULE SMILES": "COc1cc2ncnc(Nc3ccc(Oc4ccccc4)cc3)c2cc1OC", "QUANTITY UNIT": "%", "EXPERIMENTAL RESULT": 98.4}
{"MOLECULE SMILES": "C[C@@H]1CCN(C(=O)CC#N)C[C@@H]1N(C)c1ncnc2[nH]ccc12", "QUANTITY UNIT": "%", "EXPERIMENTAL RESULT": 99.9}

* * *

molecular target: UniProtKB Q8IYT8; assay: radiometric filter-binding kinase assay, Kinase HotSpot; conditions: compound 0.5 µM; ATP 10 µM
Sequence (Q8IYT8 whole entry, looked up): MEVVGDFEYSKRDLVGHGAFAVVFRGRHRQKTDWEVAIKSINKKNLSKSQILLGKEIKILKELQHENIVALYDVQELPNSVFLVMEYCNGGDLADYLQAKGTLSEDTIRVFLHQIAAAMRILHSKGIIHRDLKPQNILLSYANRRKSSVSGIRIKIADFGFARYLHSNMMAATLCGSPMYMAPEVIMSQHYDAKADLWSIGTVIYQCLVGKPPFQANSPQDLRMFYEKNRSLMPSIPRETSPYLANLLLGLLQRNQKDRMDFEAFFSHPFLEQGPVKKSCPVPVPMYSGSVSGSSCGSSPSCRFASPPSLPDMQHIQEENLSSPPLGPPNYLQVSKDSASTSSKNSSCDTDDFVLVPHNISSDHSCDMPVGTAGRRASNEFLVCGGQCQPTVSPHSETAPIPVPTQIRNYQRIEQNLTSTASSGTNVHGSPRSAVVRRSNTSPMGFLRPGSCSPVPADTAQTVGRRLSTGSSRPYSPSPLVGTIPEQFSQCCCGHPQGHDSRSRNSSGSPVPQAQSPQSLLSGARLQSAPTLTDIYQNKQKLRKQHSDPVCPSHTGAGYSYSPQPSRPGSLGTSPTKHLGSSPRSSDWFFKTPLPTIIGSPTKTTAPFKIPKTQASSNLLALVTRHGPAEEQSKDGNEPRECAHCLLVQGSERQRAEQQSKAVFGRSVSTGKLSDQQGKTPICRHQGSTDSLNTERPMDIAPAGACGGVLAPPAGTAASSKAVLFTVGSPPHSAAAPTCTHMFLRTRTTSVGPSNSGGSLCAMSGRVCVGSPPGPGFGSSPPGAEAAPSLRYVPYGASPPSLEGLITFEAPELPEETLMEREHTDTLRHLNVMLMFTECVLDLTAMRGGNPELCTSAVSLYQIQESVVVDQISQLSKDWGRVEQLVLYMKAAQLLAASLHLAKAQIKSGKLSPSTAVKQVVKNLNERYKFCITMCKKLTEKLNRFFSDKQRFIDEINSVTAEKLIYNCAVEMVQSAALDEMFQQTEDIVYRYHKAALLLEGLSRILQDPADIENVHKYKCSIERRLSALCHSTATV
As shown below, each of these compounds has a reported residual activity value.
MEASUREMENT KIND: residual activity

{"MOLECULE SMILES": "Ic1cccc(CSc2nnc(-c3ccncc3)o2)c1", "EXPERIMENTAL RESULT": "111%"}
{"MOLECULE SMILES": "COc1ccc(Cl)cc1NC(=O)Nc1cc(C)nc2ccccc12", "EXPERIMENTAL RESULT": "106%"}
{"MOLECULE SMILES": "COc1cc2ncnc(Nc3ccc(OCc4ccccc4)cc3)c2cc1OC", "EXPERIMENTAL RESULT": "97%"}
{"MOLECULE SMILES": "CN(C)c1ccc(/C=C2\\C(=O)Nc3ccccc32)cc1", "EXPERIMENTAL RESULT": "97.1%"}
{"MOLECULE SMILES": "COc1cc(Nc2c(C#N)cnc3cc(OCCCN4CCN(C)CC4)c(OC)cc23)c(Cl)cc1Cl", "EXPERIMENTAL RESULT": "92.2%"}
{"MOLECULE SMILES": "CO[C@@H]1[C@H](N(C)C(=O)c2ccccc2)C[C@H]2O[C@]1(C)n1c3ccccc3c3c4c(c5c6ccccc6n2c5c31)C(=O)NC4", "EXPERIMENTAL RESULT": "95.7%"}
{"MOLECULE SMILES": "COc1ccc2c(c1)/C(=C/c1cnc[nH]1)C(O)=N2", "EXPERIMENTAL RESULT": "97.7%"}
{"MOLECULE SMILES": "NC(=O)c1cccc(-c2cc(Nc3ccc(OC(F)(F)F)cc3)ncn2)c1", "EXPERIMENTAL RESULT": "103%"}
{"MOLECULE SMILES": "Cc1nc(-c2ccccc2)c(-c2ccncc2)o1", "EXPERIMENTAL RESULT": "102%"}
{"MOLECULE SMILES": "N#C/C(=C\\c1ccc(O)c(O)c1)C(=O)NCc1ccccc1", "EXPERIMENTAL RESULT": "106%"}
{"MOLECULE SMILES": "O=C1Nc2ccc(Br)cc2/C1=C\\c1cc2c([nH]1)CCCC2", "EXPERIMENTAL RESULT": "114%"}
{"MOLECULE SMILES": "COc1ccc(S(=O)(=O)N(CCO)c2ccccc2CN(C)C/C=C/c2ccc(Cl)cc2)cc1", "EXPERIMENTAL RESULT": "102%"}
{"MOLECULE SMILES": "N#Cc1c[nH]c2c[nH]/c(=N\\Cc3cccnc3)cc2/c1=N\\c1ccc(F)c(Cl)c1", "EXPERIMENTAL RESULT": "102%"}
{"MOLECULE SMILES": "COc1cc2ncnc(Nc3ccc(Oc4ccccc4)cc3)c2cc1OC", "EXPERIMENTAL RESULT": "97.8%"}
{"MOLECULE SMILES": "CN(C)S(=O)(=O)c1ccc2c(c1)/C(=C/c1cc3c([nH]1)CCCC3)C(=O)N2", "EXPERIMENTAL RESULT": "26.3%"}
{"MOLECULE SMILES": "CN(C)CCCn1cc(C2=C(c3c[nH]c4ccccc34)C(=O)NC2=O)c2ccccc21", "EXPERIMENTAL RESULT": "145%"}
{"MOLECULE SMILES": "CCCCc1c(-c2ccc(OC)cc2)[nH]c2nccnc12", "EXPERIMENTAL RESULT": "108%"}
{"MOLECULE SMILES": "C[C@@H]1CCN(C(=O)CC#N)C[C@@H]1N(C)c1ncnc2[nH]ccc12", "EXPERIMENTAL RESULT": "92%"}
{"MOLECULE SMILES": "COc1ccc2c(c1)c(C1=C(c3c[nH]c4ccccc34)C(=O)NC1=O)cn2CCCN(C)C", "EXPERIMENTAL RESULT": "96.1%"}
{"MOLECULE SMILES": "O=C1NC(=O)c2c1c1c3ccccc3[nH]c1n1cncc21", "EXPERIMENTAL RESULT": "95.5%"}
{"MOLECULE SMILES": "c1ccc2c(-c3ccncc3)c[nH]c2c1", "EXPERIMENTAL RESULT": "106%"}
{"MOLECULE SMILES": "Cn1c2ccccc2c2c3c(c4c5ccccc5n(CCC#N)c4c21)CNC3=O", "EXPERIMENTAL RESULT": "92.9%"}
{"MOLECULE SMILES": "O=C1C(Cl)=C(N2C(=O)CCC2=O)C(=O)c2ccccc21", "EXPERIMENTAL RESULT": "108%"}
{"MOLECULE SMILES": "O=C1c2ccccc2-c2nc3nnnn3nc21", "EXPERIMENTAL RESULT": "105%"}
{"MOLECULE SMILES": "CC(C)(C)c1cc(C=C(C#N)C#N)cc(Br)c1O", "EXPERIMENTAL RESULT": "103%"}
{"MOLECULE SMILES": "Cc1cncc2cccc(S(=O)(=O)N3CCCN(C(=O)CN)C[C@H]3C)c12", "EXPERIMENTAL RESULT": "98.8%"}

* * *

target: MAP4K5 (human) (UniProt Q9Y4K4); assay: radiometric filter-binding kinase assay, Kinase HotSpot; details: compound 0.5 µM; ATP 10 µM
Sequence (Q9Y4K4 whole entry, looked up): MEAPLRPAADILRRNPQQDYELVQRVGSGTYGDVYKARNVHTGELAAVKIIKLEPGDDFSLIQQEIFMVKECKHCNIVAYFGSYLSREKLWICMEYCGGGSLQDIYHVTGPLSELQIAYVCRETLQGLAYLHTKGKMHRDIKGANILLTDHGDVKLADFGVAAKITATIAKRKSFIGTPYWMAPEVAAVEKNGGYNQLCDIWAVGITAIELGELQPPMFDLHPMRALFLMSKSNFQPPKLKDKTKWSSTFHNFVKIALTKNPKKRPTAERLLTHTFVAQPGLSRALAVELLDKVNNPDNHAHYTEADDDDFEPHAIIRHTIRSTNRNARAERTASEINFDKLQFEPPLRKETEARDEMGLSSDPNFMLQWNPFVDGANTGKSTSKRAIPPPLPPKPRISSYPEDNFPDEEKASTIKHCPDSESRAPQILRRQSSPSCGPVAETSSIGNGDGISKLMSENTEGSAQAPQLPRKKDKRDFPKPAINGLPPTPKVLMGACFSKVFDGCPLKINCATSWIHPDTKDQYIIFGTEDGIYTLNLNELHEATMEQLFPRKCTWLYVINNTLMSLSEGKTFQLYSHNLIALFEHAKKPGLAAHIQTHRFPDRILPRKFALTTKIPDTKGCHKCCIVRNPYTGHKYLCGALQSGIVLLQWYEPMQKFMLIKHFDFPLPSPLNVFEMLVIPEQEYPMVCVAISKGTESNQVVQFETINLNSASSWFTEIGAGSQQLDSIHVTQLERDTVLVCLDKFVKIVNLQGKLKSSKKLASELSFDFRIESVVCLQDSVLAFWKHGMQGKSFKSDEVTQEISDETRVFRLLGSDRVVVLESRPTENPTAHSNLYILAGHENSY
# residual activity per entry
MEASUREMENT KIND: residual activity (%)

{"MOLECULE SMILES": "O=C1NC(=O)c2c1c1c3ccccc3[nH]c1n1cncc21", "EXPERIMENTAL RESULT": 13.5}
{"MOLECULE SMILES": "N#Cc1c[nH]c2c[nH]/c(=N\\Cc3cccnc3)cc2/c1=N\\c1ccc(F)c(Cl)c1", "EXPERIMENTAL RESULT": 61.7}
{"MOLECULE SMILES": "c1ccc2c(-c3ccncc3)c[nH]c2c1", "EXPERIMENTAL RESULT": 106}
{"MOLECULE SMILES": "CN(C)S(=O)(=O)c1ccc2c(c1)/C(=C/c1cc3c([nH]1)CCCC3)C(=O)N2", "EXPERIMENTAL RESULT": 3.08}
{"MOLECULE SMILES": "Fc1ccc(-c2nc3n(c2-c2ccncc2)CCS3)cc1", "EXPERIMENTAL RESULT": 98.7}
{"MOLECULE SMILES": "CO[C@@H]1[C@H](N(C)C(=O)c2ccccc2)C[C@H]2O[C@]1(C)n1c3ccccc3c3c4c(c5c6ccccc6n2c5c31)C(=O)NC4", "EXPERIMENTAL RESULT": 7.01}
{"MOLECULE SMILES": "O=C1c2ccccc2-c2nc3nnnn3nc21", "EXPERIMENTAL RESULT": 78.7}
{"MOLECULE SMILES": "O=C1Nc2ccc(Br)cc2/C1=C\\c1cc2c([nH]1)CCCC2", "EXPERIMENTAL RESULT": 17.7}
{"MOLECULE SMILES": "COc1cc(Nc2c(C#N)cnc3cc(OCCCN4CCN(C)CC4)c(OC)cc23)c(Cl)cc1Cl", "EXPERIMENTAL RESULT": 1.72}
{"MOLECULE SMILES": "COc1ccc(S(=O)(=O)N(CCO)c2ccccc2CN(C)C/C=C/c2ccc(Cl)cc2)cc1", "EXPERIMENTAL RESULT": 99.7}
